Values from ChEMBL document CHEMBL3243918

For each entry below, report its pA2 value.
test: Antagonist activity at guinea pig atrial beta adrenergic receptor assessed as isometric contractions by force displacement transducer; format: tissue-based, Cavia porcellus, Cardiac atrium
One number for each entry.

The cases that follow already have their pA2 on record.
{"compound": "CC(C)NCC(O)c1ccc2c(c1)OCO2.Cl (stereo unspecified)", "pA2": 6.2}
{"compound": "CC(C)(C)NCC(O)COC(=O)c1ccc2c(c1)OCO2.Cl (stereo unspecified)", "pA2": 6.9}
{"compound": "CNCC(O)COC(=O)c1ccc2c(c1)OCO2.O=C(O)C(=O)O (stereo unspecified)", "pA2": 5.3}
{"compound": "CC(C)NCC(O)COC(=O)c1ccc2c(c1)OCO2.Cl (stereo unspecified)", "pA2": 6.9}
{"compound": "CC(C)NCC(O)c1ccc(NS(C)(=O)=O)cc1 (stereo unspecified)", "pA2": 6.8}

Look up and report measured pA2 for this entry: CC(C)(C)NCC(O)c1ccc2c(c1)OCO2.Cl (stereo unspecified)
6.5
